Where do these numbers come from? They come from paper PMC9389372.

Target: beta amyloid 1–42 (Aβ42) (Homo sapiens, UniProt P05067)
Sequence (P05067 672-713): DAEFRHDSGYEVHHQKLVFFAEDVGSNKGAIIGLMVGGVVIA
Assay: fluorometric beta amyloid 1–42
Assay type: biochemical
Conditions: read-out: Percent inhibition of beta amyloid 1–42 (Aβ42) peptide aggregation
Each entry gets NO if its inhibition at 10 µM stays under 90%, and YES if its inhibition at 10 µM is 90% or above.

COc1ccc2sc(NC(=O)c3ccc(CN4CCN(CCN(C)C)CC4)cc3)nc2c1
YES
CN(C)CCN1CCN(Cc2ccc(C(=O)Nc3nc4ccccc4s3)cc2)CC1
YES

Continue with the next molecule.
Input line: Check the entry C#CCN1CCN(Cc2ccc(C(=O)Nc3nc4cc(OC)ccc4s3)cc2)CC1 : does inhibition at 10 µM equal or exceed 90%?
Output line: NO
